Biological target: Dimer of Gag-Pol polyprotein [489-587,Q496K,L499I,M525I,N526D,M535I,R546K,L552P,A560V,G562S,I573V,L579M,I582L] (Human immunodeficiency virus 1, UniProt P12497, A560V/G562S/I573V/I582L/L499I/L552P/L579M/M525I/M535I/N526D/Q496K/R546K)
Construct: 489-587
Test: Protease Inhibition Assay
pIC50: −log10 of the molar value.
Parameter Measured: pIC50

Molecular String	Observed
Cc1nnc(C[C@H](C[C@H](O)CN2CCN(C(C)(C)c3ncc(-c4ccc(F)cc4)o3)C[C@H]2C(=O)NCC(F)(F)F)C(=O)N[C@H]2c3ccccc3OC[C@H]2O)o1	9.72
O=C(N[C@H]1c2ccccc2OC[C@H]1O)[C@H](Cc1nnco1)C[C@H](O)CN1CCN(Cc2ccc(-c3ccc(Cl)cc3)o2)C[C@H]1C(=O)NCC(F)(F)F	10.00
Cc1nnc(C[C@H](C[C@H](O)CN2CCN(C(C)(C)c3ncc(-c4ccc(Cl)cc4)o3)C[C@H]2C(=O)NCC(F)(F)F)C(=O)N[C@H]2c3ccccc3OC[C@H]2O)o1	10.22
CCCc1nnc(C[C@H](C[C@H](O)CN2CCN(C(C)(C)c3ncc(-c4ccc(Cl)cc4)o3)C[C@H]2C(=O)NCC(F)(F)F)C(=O)N[C@H]2c3ccccc3OC[C@H]2O)o1	9.92
COc1cncc(-c2cnc(C(C)(C)N3CCN(C[C@@H](O)C[C@@H](Cc4nnco4)C(=O)N[C@H]4c5ccccc5OC[C@H]4O)[C@H](C(=O)NCC(F)(F)F)C3)o2)c1	8.13
